Here, each record is paired with measured MIC90 data.
Test system: Klebsiella pneumoniae
Test: Antibacterial activity against Klebsiella pneumoniae
Assay type: functional
Numbers only; they are read as µg/mL.

Consider the following illustrative entries.
[
  {
    "Compound": "C[C@H]1COc2c(N3CCN(C)CC3)c(F)cc3c(=O)c(C(=O)O)cn1c23.C[C@H]1COc2c(N3CCN(C)CC3)c(F)cc3c(=O)c(C(=O)O)cn1c23.O [LEVOFLOXACIN]",
    "Observed property": "MIC90",
    "Observed value": 0.5
  },
  {
    "Compound": "Cc1c(N2CC[C@@H]([C@H](C)N)C2)c(F)cc2c(=O)[nH]c(=O)n(C3CC3)c12",
    "Observed property": "MIC90",
    "Observed value": 16
  },
  {
    "Compound": "Cc1c(N2CC[C@@H]([C@H](C)N)C2)c(F)cc2c(=O)n(N)c(=O)n(C3CC3)c12",
    "Observed property": "MIC90",
    "Observed value": 4
  },
  {
    "Compound": "COc1c(N2CCNC(C)C2)c(F)cc2c(=O)c(C(=O)O)cn(C3CC3)c12 (stereo not given) [GATIFLOXACIN]",
    "Observed property": "MIC90",
    "Observed value": 0.5
  }
]

Let us examine a further case.
Request: Read off the recorded MIC90 for C[C@H]1NCc2cc(-c3ccc4c(=O)c(C(=O)O)cn(C5CC5)c4c3OC(F)F)ccc21 [GARENOXACIN]
Result: 1

* * *

Test system: Prevotella corporis
Test: Antibacterial activity against Prevotella corporis
Type: functional
Reported MIC90 values follow for various molecules
// units = µg/mL; emit number, no label

[
  {
    "Molecule": "C[C@H]1COc2c(N3CCN(C)CC3)c(F)cc3c(=O)c(C(=O)O)cn1c23.C[C@H]1COc2c(N3CCN(C)CC3)c(F)cc3c(=O)c(C(=O)O)cn1c23.O",
    "Unit string": "µg/mL",
    "MIC90": 2
  },
  {
    "Molecule": "COc1c(N2CCNC(C)C2)c(F)cc2c(=O)c(C(=O)O)cn(C3CC3)c12 (stereo not given)",
    "Unit string": "µg/mL",
    "MIC90": 0.5
  },
  {
    "Molecule": "Cc1c(N2CC[C@@H]([C@H](C)N)C2)c(F)cc2c(=O)[nH]c(=O)n(C3CC3)c12",
    "Unit string": "µg/mL",
    "MIC90": 2
  },
  {
    "Molecule": "Cc1c(N2CC[C@@H]([C@H](C)N)C2)c(F)cc2c(=O)n(N)c(=O)n(C3CC3)c12",
    "Unit string": "µg/mL",
    "MIC90": 1
  }
]

Request: In one line, give reported MIC90 of the entry C[C@H]1NCc2cc(-c3ccc4c(=O)c(C(=O)O)cn(C5CC5)c4c3OC(F)F)ccc21 .
Result: 1

* * *

Overview of recorded MIC50 for various compounds
System: Staphylococcus haemolyticus
Test: Antibacterial activity against Staphylococcus haemolyticus
Type: functional
Your answer should be a number followed by the unit of measure.

[
  {
    "Compound": "COc1c(N2CCNC(C)C2)c(F)cc2c(=O)c(C(=O)O)cn(C3CC3)c12 (stereo not given)",
    "MIC50": "0.125 µg/mL"
  },
  {
    "Compound": "C[C@H]1COc2c(N3CCN(C)CC3)c(F)cc3c(=O)c(C(=O)O)cn1c23.C[C@H]1COc2c(N3CCN(C)CC3)c(F)cc3c(=O)c(C(=O)O)cn1c23.O",
    "MIC50": "0.25 µg/mL"
  },
  {
    "Compound": "C[C@H]1NCc2cc(-c3ccc4c(=O)c(C(=O)O)cn(C5CC5)c4c3OC(F)F)ccc21",
    "MIC50": "0.06 µg/mL"
  },
  {
    "Compound": "Cc1c(N2CC[C@@H]([C@H](C)N)C2)c(F)cc2c(=O)[nH]c(=O)n(C3CC3)c12",
    "MIC50": "0.25 µg/mL"
  }
]

// below: MIC50 requested for another compound
Request: Name the value of MIC50 reported for Cc1c(N2CC[C@@H]([C@H](C)N)C2)c(F)cc2c(=O)n(N)c(=O)n(C3CC3)c12 when tested on Staphylococcus haemolyticus.
Result: 0.125 µg/mL
